tested on: phospho-akt (Thr308); test: phospho-akt (Thr308) MSD ELISA in PC-3 cells; type: cell-based; conditions: Homo sapiens, PC-3, 2 h, PC-3 cells, 2 hours, no serum; read-out: Inhibition of P308 Akt in cells using MSD EC50
measure.name: EC50

COCCNC(=O)c1cnc2[nH]cc(-c3cccc(CNC(=O)c4cccn(Cc5ccc(F)c(F)c5)c4=O)c3)c2c1 :: < 1000 nM

Hi, could you look up EC50 for each item in my list?
1. CC(C)n1c(=O)[nH]c2cc(OCCNC(=O)c3cccn(Cc4ccc(F)c(F)c4)c3=O)ccc21
2. CN(C)C(=O)c1cnc2[nH]cc(-c3cccc(CNC(=O)c4cccn(Cc5ccc(F)c(F)c5)c4=O)c3)c2c1
3. O=C1Cc2ccc(/C=C/CNC(=O)c3cccn(Cc4cc(F)c(F)c(F)c4)c3=O)cc2N1
4. O=C(NC(COc1ccc2[nH]c(=O)[nH]c2c1)c1ccc(F)cc1)c1cccn(Cc2ccc(F)c(F)c2)c1=O (stereo not drawn)

1: > 5000 nM; 2: < 1000 nM; 3: > 5000 nM; 4: < 1000 nM

Hi, could you look up EC50 for each item in my list?
1. O=C(Nc1n[nH]c2ccc(-c3c[nH]c4ncccc34)cc12)c1cccn(Cc2ccc(F)c(F)c2)c1=O
2. O=C1Nc2cc(/C=C/CNC(=O)c3cccn(Cc4cc(F)c(F)c(F)c4)c3=O)ccc2/C1=C\c1ccc(O)cc1
3. O=C(NCc1cc(-c2c[nH]c3ncccc23)[nH]n1)c1cccn(Cc2cc(F)c(F)c(F)c2)c1=O
4. N#Cc1cnc2[nH]cc(-c3cccc(CNC(=O)c4cccn(Cc5ccc(F)c(F)c5)c4=O)c3)c2c1

["1000 to 5000 nM", "< 1000 nM", "1000 to 5000 nM", "< 1000 nM"]

Hi, could you look up EC50 for each item in my list?
1. O=C(N[C@@H](COc1ccc2[nH]c(=O)[nH]c2c1F)c1ccccc1)c1cccn(Cc2cc(F)c(F)c(F)c2)c1=O
2. NC(=O)c1cnc2[nH]cc(-c3cccc(CNC(=O)c4cccn(Cc5ccc(F)c(F)c5)c4=O)c3)c2c1
3. O=C1Nc2cc(/C=C/CNC(=O)c3cccn(Cc4cc(F)c(F)c(F)c4)c3=O)ccc2/C1=C/c1ncc[nH]1
4. COC(=O)[C@H](COc1ccc2[nH]c(=O)[nH]c2c1)NC(=O)c1cccn(Cc2cc(F)c(F)c(F)c2)c1=O
5. O=C(N[C@@H](COc1ccc2[nH]c(=O)[nH]c2c1)c1cccs1)c1cccn(Cc2ccc(F)c(F)c2)c1=O
6. O=C(NCc1cc(-c2c[nH]c3ncccc23)ccn1)c1cccn(Cc2ccc(F)c(F)c2)c1=O
7. Cc1ccc(NC(=O)c2cccn(Cc3ccc(F)c(F)c3)c2=O)cc1-c1ccc2[nH]c(=O)[nH]c2c1

< 1000 nM
< 1000 nM
< 1000 nM
< 1000 nM
< 1000 nM
< 1000 nM
> 5000 nM

Hi, could you look up EC50 for each item in my list?
1. O=C(C[C@@H](NC(=O)c1cccn(Cc2ccc(F)c(F)c2)c1=O)c1ccc(-c2c[nH]c3ncccc23)s1)NC1CC1
2. O=C(NCc1noc(-c2c[nH]c3ncccc23)n1)c1cccn(Cc2ccc(C(F)(F)F)cc2)c1=O

1000 to 5000 nM
> 5000 nM
